Provenance of the data: patent US8901305B2

For each record, write down the corresponding pIC50.
Target: GST-Xa-hAAK1 (Homo sapiens)
Construct: made in house
Sequence (Q2M2I8 whole entry): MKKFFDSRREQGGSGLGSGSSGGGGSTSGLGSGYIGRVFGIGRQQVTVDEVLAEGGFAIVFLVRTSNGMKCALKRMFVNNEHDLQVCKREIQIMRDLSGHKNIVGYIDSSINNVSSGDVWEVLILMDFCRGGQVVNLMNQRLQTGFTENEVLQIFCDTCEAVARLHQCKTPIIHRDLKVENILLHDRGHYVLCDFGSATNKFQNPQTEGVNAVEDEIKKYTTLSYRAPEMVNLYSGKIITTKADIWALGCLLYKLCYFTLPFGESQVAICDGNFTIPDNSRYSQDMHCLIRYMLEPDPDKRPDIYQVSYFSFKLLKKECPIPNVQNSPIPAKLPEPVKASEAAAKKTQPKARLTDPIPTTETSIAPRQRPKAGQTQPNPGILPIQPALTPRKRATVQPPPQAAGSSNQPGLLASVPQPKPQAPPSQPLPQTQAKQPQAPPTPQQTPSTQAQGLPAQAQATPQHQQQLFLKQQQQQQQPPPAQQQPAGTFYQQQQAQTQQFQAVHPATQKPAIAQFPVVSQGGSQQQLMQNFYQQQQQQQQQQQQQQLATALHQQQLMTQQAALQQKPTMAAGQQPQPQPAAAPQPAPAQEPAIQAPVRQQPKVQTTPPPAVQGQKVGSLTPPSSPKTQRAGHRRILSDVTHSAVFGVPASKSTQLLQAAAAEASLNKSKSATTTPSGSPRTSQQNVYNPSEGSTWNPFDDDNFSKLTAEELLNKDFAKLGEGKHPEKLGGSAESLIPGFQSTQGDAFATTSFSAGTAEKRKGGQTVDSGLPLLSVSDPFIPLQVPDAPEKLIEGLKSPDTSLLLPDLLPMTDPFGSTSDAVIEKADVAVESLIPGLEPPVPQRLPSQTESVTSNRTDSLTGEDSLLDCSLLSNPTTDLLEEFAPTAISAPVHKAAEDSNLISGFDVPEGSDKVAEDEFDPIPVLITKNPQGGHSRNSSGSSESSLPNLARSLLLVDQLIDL
Experiment: AAK1 kinase assay
Assay type: biochemical
Conditions: ATP 22 μM, 3 hours at room temperature
Answers are plain numbers, as −log10 of the molar value.

// below: answered compounds
{"compound": "C=CCn1c(=O)c2cnccc2c2ccc(OC[C@@H](N)CC(C)C)cc21 [Example 9]", "assay_target": "GST-Xa-hAAK1 (Homo sapiens)", "measured_endpoint": "pIC50", "readout_value": 8.01}
{"compound": "COCCn1c(=O)c2cnccc2c2ccc(OC[C@@H](N)CC(C)C)cc21 [Example 12]", "assay_target": "GST-Xa-hAAK1 (Homo sapiens)", "measured_endpoint": "pIC50", "readout_value": 7.07}
{"compound": "CC(C)C[C@H](N)COc1cc2c(cc1F)c1ccncc1c(=O)n2C [Example 14]", "assay_target": "GST-Xa-hAAK1 (Homo sapiens)", "measured_endpoint": "pIC50", "readout_value": 8.15}
{"compound": "COc1ccc(CNc2nccc3c2c(=O)n(C)c2cc(OC[C@@H](N)CC(C)C)ccc32)cc1 [Example 50]", "assay_target": "GST-Xa-hAAK1 (Homo sapiens)", "measured_endpoint": "pIC50", "readout_value": 7.48}

Please state pIC50 for every compound in the list that follows.
1. Cc1nccc2c1c(=O)n(C)c1cc(OC[C@@H](N)CC3CC3)ccc21 [Example 21]
2. Cc1nccc2c1c(=O)n(C)c1cc(OC[C@@](C)(N)CC(C)C)ccc21 (single isomer, unassigned) [Example 38]
3. Cc1cc2c3ccnc(C)c3c(=O)n(C)c2cc1OC[C@@H](N)CC1CCC1 [Example 26]
4. CC(C)CC(C)(N)COc1ccc2c3ccncc3c(=O)n(C)c2c1 (single isomer, unassigned) [Example 58]

-- reply
1. 7.64
2. 7.89
3. 8.54
4. 7.96

---

Molecular target: GST-Xa-hAAK1 (Homo sapiens)
Construct: made in house
Assay: AAK1 kinase assay
Format: biochemical
Settings: given as IC50 range; ATP 22 μM, 3 hours at room temperature
Method: The assays were performed in U-bottom 384-well plates. […] The reactions were initiated by the combination of bacterially expressed, GST-Xa-hAAK1 with substrates and test compounds. […] The reactions were analyzed on the Caliper LabChip 3000 (Caliper, Hopkinton, Mass.) by electrophoretic separation of the fluorescent substrate and phosphorylated product. […] Compounds were dissolved at 10 mM in dimethylsulfoxide (DMSO) and evaluated at eleven concentrations. […]
pIC50: −log10 of the molar value.
For each record, write down the corresponding pIC50.

{"molecule": "Cn1c(=O)c2cnccc2c2cc(C#N)c(OCC(N)CCC(F)(F)F)cc21 (stereo not shown)", "assay_target": "GST-Xa-hAAK1 (Homo sapiens)", "pIC50": "8.00 to 9.00"}
{"molecule": "Cc1nccc2c1c(=O)n(C)c1c(F)c(OCC(C)(N)CC(C)C)ccc21 (stereo not shown)", "assay_target": "GST-Xa-hAAK1 (Homo sapiens)", "pIC50": "5.70 to 7.00"}
{"molecule": "Cc1nccc2c1c(=O)n(C)c1cc(OC[C@@H](N)CC(C)C)c(CO)cc21", "assay_target": "GST-Xa-hAAK1 (Homo sapiens)", "pIC50": "8.00 to 9.00"}

Now look at this one.
-- ask Specify measured pIC50 for Cc1nccc2c1c(=O)n(C)c1cc(OC(C)[C@@H](N)CC(C)C)ccc21 (mixture of isomers) .
-- reply 7.00 to 8.00
